Solubility of the medicament in the emulsion overview
settings: Ester mixture A (glycerol triesters of caprylic acid 70% and capric acid 30%); lipid content 20% by weight; room temperature
measurement-name: Solubility of the medicament in the emulsion

compound | observed
CCOC(=O)C1=C(C)NC(C)=C(C(=O)OC)C1c1cccc([N+](=O)[O-])c1 (stereo not shown) [Nitrendipine] | 0.08 % (W/W)
CC(c1ccc(Cl)c(Cl)c1)N1N=C(N)CC1=O (stereo not shown) [Muzolimine] | 0.06 % (W/W)
COCCOC(=O)C1=C(C)NC(C)=C(C(=O)OC(C)C)C1c1cccc([N+](=O)[O-])c1 (stereo not shown) [Nimodipine] | 0.16 % (W/W)
COC(=O)C1=C(C)NC(C)=C(C(=O)OCC(C)C)C1c1ccccc1[N+](=O)[O-] (stereo not shown) [Nisoldipine] | 0.14 % (W/W)

---

Solubility of the medicament in the emulsion overview
settings: Ester mixture B (propylene glycol diesters of caprylic acid 75% and capric acid 25%); lipid content 20% by weight; room temperature
measurement-name: Solubility of the medicament in the emulsion

molecule | observed
CC(c1ccc(Cl)c(Cl)c1)N1N=C(N)CC1=O (stereo not shown) | 0.06 % (W/W)
CCOC(=O)C1=C(C)NC(C)=C(C(=O)OC)C1c1cccc([N+](=O)[O-])c1 (stereo not shown) | 0.12 % (W/W)
COC(=O)C1=C(C)NC(C)=C(C(=O)OCC(C)C)C1c1ccccc1[N+](=O)[O-] (stereo not shown) | 0.18 % (W/W)
COCCOC(=O)C1=C(C)NC(C)=C(C(=O)OC(C)C)C1c1cccc([N+](=O)[O-])c1 (stereo not shown) | 0.26 % (W/W)

---

details: Soy bean oil; lipid content 20% by weight; room temperature
measurement-name: Solubility of the medicament in the emulsion

compound | observed
CCOC(=O)C1=C(C)NC(C)=C(C(=O)OC)C1c1cccc([N+](=O)[O-])c1 (centres unmarked) | 0.03 % (W/W)
COC(=O)C1=C(C)NC(C)=C(C(=O)OCC(C)C)C1c1ccccc1[N+](=O)[O-] (centres unmarked) | 0.04 % (W/W)
CCCOC(=O)Cc1ccc(OCC(=O)N(CC)CC)c(OC)c1 [Propanidide] | 2.80 % (W/W)
COCCOC(=O)C1=C(C)NC(C)=C(C(=O)OC(C)C)C1c1cccc([N+](=O)[O-])c1 (centres unmarked) | 0.04 % (W/W)
CC(c1ccc(Cl)c(Cl)c1)N1N=C(N)CC1=O (centres unmarked) | 0.01 % (W/W)

---

conditions: Ester mixture C (75% glycerol triesters, 12.5% diesters, 12.5% monoesters of caprylic/capric acid); lipid content 20% by weight; room temperature
Solubility of the medicament in the emulsion overview
measurement-name: Solubility of the medicament in the emulsion

compound | observed
COCCOC(=O)C1=C(C)NC(C)=C(C(=O)OC(C)C)C1c1cccc([N+](=O)[O-])c1 (stereo not shown) | 0.50 % (W/W)
CCOC(=O)C1=C(C)NC(C)=C(C(=O)OC)C1c1cccc([N+](=O)[O-])c1 (stereo not shown) | 0.14 % (W/W)
CC(c1ccc(Cl)c(Cl)c1)N1N=C(N)CC1=O (stereo not shown) | 0.32 % (W/W)
COC(=O)C1=C(C)NC(C)=C(C(=O)OCC(C)C)C1c1ccccc1[N+](=O)[O-] (stereo not shown) | 0.20 % (W/W)
